Overview of recorded pIC50 for various compounds
# EXPERIMENTAL_TARGET: CDK1-NanoLuc fusion with CCNB1 in 293T or 293 cells (Homo sapiens)
# Construct: host or cells: 293T (ATCC CRL-3216) or 293 (ATCC CRL-1573)
# Sequence (P06493 whole entry, the tested form may be a part): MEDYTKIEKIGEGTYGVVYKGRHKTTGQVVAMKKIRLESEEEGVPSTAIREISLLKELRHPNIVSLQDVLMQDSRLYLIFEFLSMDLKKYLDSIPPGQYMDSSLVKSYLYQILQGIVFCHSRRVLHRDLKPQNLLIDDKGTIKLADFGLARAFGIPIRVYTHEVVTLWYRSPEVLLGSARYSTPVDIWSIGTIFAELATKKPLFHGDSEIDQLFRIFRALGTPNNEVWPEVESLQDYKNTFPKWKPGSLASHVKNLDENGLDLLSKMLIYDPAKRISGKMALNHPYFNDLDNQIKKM
# Sequence (P14635 whole entry partner, the tested form may be a part): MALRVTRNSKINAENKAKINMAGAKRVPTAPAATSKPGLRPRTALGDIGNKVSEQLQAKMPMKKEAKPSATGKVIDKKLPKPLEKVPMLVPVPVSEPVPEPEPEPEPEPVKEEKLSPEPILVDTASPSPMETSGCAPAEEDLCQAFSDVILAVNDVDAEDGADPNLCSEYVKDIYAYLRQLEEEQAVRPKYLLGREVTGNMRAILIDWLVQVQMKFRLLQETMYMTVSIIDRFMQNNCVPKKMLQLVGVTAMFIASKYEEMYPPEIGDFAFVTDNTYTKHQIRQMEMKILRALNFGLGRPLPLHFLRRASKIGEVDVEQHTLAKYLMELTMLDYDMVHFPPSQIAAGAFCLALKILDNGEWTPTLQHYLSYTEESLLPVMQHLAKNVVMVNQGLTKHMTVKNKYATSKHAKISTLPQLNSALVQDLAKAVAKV
# ASSAY_PROCEDURE: NanoBRET Target Engagement (TE) Intracellular Kinase Assay, CDK1/CCNB1
# Format: cell-based
# DETAILS: NanoBRET TE intracellular kinase assay, 2-hour incubation, read-out: NanoBRET-CDK1/B1 IC50
pIC50: −log10 of the molar value.

{"COMPOUND": "CC(C)NC(=O)O[C@H]1C[C@@H](c2cc(NC(=O)COc3cccc(O)c3C=O)n[nH]2)C1 [Compound 114]", "pIC50": 7.57}
{"COMPOUND": "CC(C)NC(=O)O[C@@H]1CC[C@H](c2cc(NC(=O)c3cc(CCc4cccc(O)c4C=O)nn3C)n[nH]2)C1 [Compound 30]", "pIC50": 6.31}
{"COMPOUND": "CC(C)NC(=O)O[C@@H]1CC[C@H](c2cc(NC(=O)c3cc(-c4cccc(C=O)c4O)nn3C)n[nH]2)C1 [Compound 18, trifluoroacetic acid]", "pIC50": 6.15}

---

Recorded IC50 values for a group of molecules are listed next.
# EXPERIMENTAL_TARGET: CDK2-NanoLuc fusion with CCNE1 in 293T or 293 cells (Homo sapiens)
# Construct: host or cells: 293T (ATCC CRL-3216) or 293 (ATCC CRL-1573)
# ASSAY_PROCEDURE: NanoBRET Target Engagement (TE) Intracellular Kinase Assay, CDK2/CCNE1
# Type: cell-based
# DETAILS: NanoBRET-CDK2/E1 IC50, NanoBRET TE intracellular kinase assay, 2-hour incubation
# Procedure: Inhibitory effects of compounds were measured in NanoBRET TE Intracellular Kinase Assay. […] NanoBRET signals (donor emission wavelength at 450 nm, acceptor emission wavelength at 610 nm) were measured using Envision plate reader (PerkinElmer). NanoBRET ratio was calculated by: BRET Ratio=raw signal for acceptor/raw signal for donor. […]

{"MOLECULE": "CC(C)NC(=O)O[C@@H]1CC[C@H](c2cc(NC(=O)c3cc(-c4c(F)ccc(O)c4C=O)nn3C)n[nH]2)C1 [Compound 45]", "IC50": "2.8 nM"}
{"MOLECULE": "COc1cc(O)c(C=O)c(OCC(=O)Nc2cc([C@H]3CC[C@@H](OC(=O)N4C5CCC4COC5)C3)[nH]n2)c1 [Compound 207]", "IC50": "2.25 nM"}
{"MOLECULE": "CC(C)NC(=O)O[C@@H]1CC[C@H](c2cc(NC(=O)c3ccnc(Oc4cccc(O)c4C=O)c3)n[nH]2)C1 [Compound 69, trifluoroacetic acid]", "IC50": "1.92 nM"}

---

# EXPERIMENTAL_TARGET: CDK4-NanoLuc fusion with CCND1 in 293T or 293 cells (Homo sapiens)
# Construct: host or cells: 293T (ATCC CRL-3216) or 293 (ATCC CRL-1573)
# Sequence (P11802 whole entry, the tested form may be a part): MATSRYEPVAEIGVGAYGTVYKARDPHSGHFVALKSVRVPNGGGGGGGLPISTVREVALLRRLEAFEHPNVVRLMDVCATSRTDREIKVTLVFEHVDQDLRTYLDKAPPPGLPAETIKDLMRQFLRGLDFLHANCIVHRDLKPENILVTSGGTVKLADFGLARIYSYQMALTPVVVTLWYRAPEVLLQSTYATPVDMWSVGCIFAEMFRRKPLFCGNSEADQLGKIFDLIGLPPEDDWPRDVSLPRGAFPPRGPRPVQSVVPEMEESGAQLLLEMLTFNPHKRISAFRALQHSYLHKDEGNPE
# Sequence (P24385 whole entry partner, the tested form may be a part): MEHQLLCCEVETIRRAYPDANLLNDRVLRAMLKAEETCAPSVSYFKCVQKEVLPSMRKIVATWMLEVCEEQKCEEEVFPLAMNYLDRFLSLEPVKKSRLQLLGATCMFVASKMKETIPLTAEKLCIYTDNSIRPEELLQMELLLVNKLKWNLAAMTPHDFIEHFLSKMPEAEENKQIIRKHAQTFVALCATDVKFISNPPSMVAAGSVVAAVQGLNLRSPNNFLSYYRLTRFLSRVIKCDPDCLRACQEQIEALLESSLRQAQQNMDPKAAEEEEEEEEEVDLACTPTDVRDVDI
# ASSAY_PROCEDURE: NanoBRET Target Engagement (TE) Intracellular Kinase Assay, CDK4/CCND1
# Format: cell-based
# DETAILS: NanoBRET TE intracellular kinase assay, 2-hour incubation, read-out: NanoBRET-CDK4/D1 IC50
QUANTITY_NAME: IC50 (nM)

{"COMPOUND": "COc1cc(O)c(C=O)c(OCC(=O)Nc2cc([C@H]3CC[C@@H](OC(=O)N(OC)C(C)C)C3)[nH]n2)c1", "EXPERIMENTAL_TARGET": "CDK4-NanoLuc fusion with CCND1 in 293T or 293 cells (Homo sapiens)", "INEQUALITY_SYMBOL": ">", "READING": 10000}
{"COMPOUND": "CC(=O)Nc1cc(C(=O)Nc2cc([C@H]3CC[C@@H](OC(=O)NC(C)C)C3)[nH]n2)ccc1C=O", "EXPERIMENTAL_TARGET": "CDK4-NanoLuc fusion with CCND1 in 293T or 293 cells (Homo sapiens)", "INEQUALITY_SYMBOL": "=", "READING": 128}
{"COMPOUND": "Cc1cc(O)c(C=O)c(OCC(=O)Nc2cc([C@H]3CC[C@@H](OC(=O)NC4(C#N)CC4)C3)[nH]n2)c1", "EXPERIMENTAL_TARGET": "CDK4-NanoLuc fusion with CCND1 in 293T or 293 cells (Homo sapiens)", "INEQUALITY_SYMBOL": "=", "READING": 3990}
{"COMPOUND": "CC(C)NC(=O)O[C@@H]1CC[C@H](c2cc(NC(=O)[C@H]3C[C@H](Oc4cccc(O)c4C=O)C3)n[nH]2)C1 (single isomer, unassigned)", "EXPERIMENTAL_TARGET": "CDK4-NanoLuc fusion with CCND1 in 293T or 293 cells (Homo sapiens)", "INEQUALITY_SYMBOL": "=", "READING": 1800}
{"COMPOUND": "COc1cc(O)c(C=O)c(OCC(=O)Nc2cc([C@H]3CC[C@@H](OC(=O)N4CCN(C)CC4)C3)[nH]n2)c1", "EXPERIMENTAL_TARGET": "CDK4-NanoLuc fusion with CCND1 in 293T or 293 cells (Homo sapiens)", "INEQUALITY_SYMBOL": "=", "READING": 5000}
{"COMPOUND": "CCN(C)NC(=O)O[C@@H]1CC[C@H](c2cc(NC(=O)COc3cc(OC)cc(O)c3C=O)n[nH]2)C1", "EXPERIMENTAL_TARGET": "CDK4-NanoLuc fusion with CCND1 in 293T or 293 cells (Homo sapiens)", "INEQUALITY_SYMBOL": ">", "READING": 10000}
{"COMPOUND": "CC1(NC(=O)O[C@@H]2CC[C@H](c3cc(NC(=O)CCc4cccc(O)c4C=O)n[nH]3)C2)CC1", "EXPERIMENTAL_TARGET": "CDK4-NanoLuc fusion with CCND1 in 293T or 293 cells (Homo sapiens)", "INEQUALITY_SYMBOL": "=", "READING": 969}
{"COMPOUND": "COc1cc(O)c(C=O)c(OCC(=O)Nc2cc([C@H]3CC[C@@H](OC(=O)N4CCOCC45CC5)C3)[nH]n2)c1", "EXPERIMENTAL_TARGET": "CDK4-NanoLuc fusion with CCND1 in 293T or 293 cells (Homo sapiens)", "INEQUALITY_SYMBOL": "=", "READING": 2040}
{"COMPOUND": "COc1cc(OC)c(C=O)c(OCC(=O)Nc2cc([C@H]3C[C@@H](OC(=O)N4C5COCC4C5)C3)[nH]n2)c1", "EXPERIMENTAL_TARGET": "CDK4-NanoLuc fusion with CCND1 in 293T or 293 cells (Homo sapiens)", "INEQUALITY_SYMBOL": ">", "READING": 10000}
{"COMPOUND": "COc1cc(O)c(C=O)c(OCC(=O)Nc2cc([C@H]3CC[C@@H](OC(=O)N[C@H]4C[C@@H](C#N)C4)C3)[nH]n2)c1", "EXPERIMENTAL_TARGET": "CDK4-NanoLuc fusion with CCND1 in 293T or 293 cells (Homo sapiens)", "INEQUALITY_SYMBOL": "=", "READING": 5860}
{"COMPOUND": "COc1cc(O)c(C=O)c(OCC(=O)Nc2cc([C@H]3CC[C@@H](OC(=O)N4CC[C@H](C#N)C4)C3)[nH]n2)c1", "EXPERIMENTAL_TARGET": "CDK4-NanoLuc fusion with CCND1 in 293T or 293 cells (Homo sapiens)", "INEQUALITY_SYMBOL": "=", "READING": 6990}
{"COMPOUND": "CC(C)NC(=O)O[C@@H]1CC[C@H](c2cc(NC(=O)COc3cc(OC(C)C)cc(O)c3C=O)n[nH]2)C1", "EXPERIMENTAL_TARGET": "CDK4-NanoLuc fusion with CCND1 in 293T or 293 cells (Homo sapiens)", "INEQUALITY_SYMBOL": "=", "READING": 9240}
{"COMPOUND": "COc1cc(O)c(C=O)c(OCC(=O)Nc2cc([C@H]3CC[C@@H](OC(=O)NC[C@H]4CCO4)C3)[nH]n2)c1", "EXPERIMENTAL_TARGET": "CDK4-NanoLuc fusion with CCND1 in 293T or 293 cells (Homo sapiens)", "INEQUALITY_SYMBOL": ">", "READING": 10000}
{"COMPOUND": "COCc1cc(O)c(C=O)c(OCC(=O)Nc2cc([C@H]3CC[C@@H](OC(=O)NC(C)C)C3)[nH]n2)c1", "EXPERIMENTAL_TARGET": "CDK4-NanoLuc fusion with CCND1 in 293T or 293 cells (Homo sapiens)", "INEQUALITY_SYMBOL": ">", "READING": 10000}
{"COMPOUND": "C#Cc1cc(O)c(C=O)c(OCC(=O)Nc2cc([C@H]3CC[C@@H](OC(=O)NC(C)C)C3)[nH]n2)c1", "EXPERIMENTAL_TARGET": "CDK4-NanoLuc fusion with CCND1 in 293T or 293 cells (Homo sapiens)", "INEQUALITY_SYMBOL": ">", "READING": 10000}
{"COMPOUND": "CC(C)NC(=O)O[C@@H]1CC[C@H](c2cc(NC(=O)Cc3cnc(-c4cccc(O)c4C=O)s3)n[nH]2)C1", "EXPERIMENTAL_TARGET": "CDK4-NanoLuc fusion with CCND1 in 293T or 293 cells (Homo sapiens)", "INEQUALITY_SYMBOL": "=", "READING": 202}
{"COMPOUND": "COc1cc(O)c(C=O)c(OCC(=O)Nc2cc([C@H]3CC[C@@H](OC(=O)NCCOC(F)F)C3)n[nH]2)c1", "EXPERIMENTAL_TARGET": "CDK4-NanoLuc fusion with CCND1 in 293T or 293 cells (Homo sapiens)", "INEQUALITY_SYMBOL": "=", "READING": 4360}
{"COMPOUND": "COc1cc(O)c(C=O)c(OCC(=O)Nc2cc([C@H]3CC[C@@H](OC(=O)N4CC(C#N)C4)C3)[nH]n2)c1", "EXPERIMENTAL_TARGET": "CDK4-NanoLuc fusion with CCND1 in 293T or 293 cells (Homo sapiens)", "INEQUALITY_SYMBOL": ">", "READING": 10000}
{"COMPOUND": "COc1cc(O)c(C=O)c(OCC(=O)Nc2cc([C@H]3CC[C@@H](OC(=O)N4C[C@@H]5CC[C@H]4C5)C3)[nH]n2)c1", "EXPERIMENTAL_TARGET": "CDK4-NanoLuc fusion with CCND1 in 293T or 293 cells (Homo sapiens)", "INEQUALITY_SYMBOL": "=", "READING": 844}
{"COMPOUND": "CC(C)NC(=O)O[C@@H]1CC[C@H](c2cc(NC(=O)[C@H]3C[C@@H](Oc4cccc(O)c4C=O)C3)n[nH]2)C1 (single isomer, unassigned)", "EXPERIMENTAL_TARGET": "CDK4-NanoLuc fusion with CCND1 in 293T or 293 cells (Homo sapiens)", "INEQUALITY_SYMBOL": "=", "READING": 1310}
{"COMPOUND": "COc1cc(O)c(C=O)c(OCC(=O)Nc2cc([C@H]3CC[C@@H](OC(=O)N4CC[C@H](F)C4)C3)[nH]n2)c1", "EXPERIMENTAL_TARGET": "CDK4-NanoLuc fusion with CCND1 in 293T or 293 cells (Homo sapiens)", "INEQUALITY_SYMBOL": "=", "READING": 2690}
{"COMPOUND": "COc1cc(O)c(C=O)c(OCC(=O)Nc2cc([C@H]3CC[C@@H](OC(=O)NC45CC(C4)C5)C3)[nH]n2)c1", "EXPERIMENTAL_TARGET": "CDK4-NanoLuc fusion with CCND1 in 293T or 293 cells (Homo sapiens)", "INEQUALITY_SYMBOL": "=", "READING": 1190}
{"COMPOUND": "COc1cc(O)c(C=O)c(OCC(=O)Nc2cc([C@H]3CC[C@@H](OC(=O)N(C(C)C)C(C)C)C3)[nH]n2)c1", "EXPERIMENTAL_TARGET": "CDK4-NanoLuc fusion with CCND1 in 293T or 293 cells (Homo sapiens)", "INEQUALITY_SYMBOL": "=", "READING": 2890}
{"COMPOUND": "COc1cc(O)c(C=O)c2c1CC(C(=O)Nc1cc([C@H]3CC[C@@H](OC(=O)N4CCCCN4C)C3)[nH]n1)C2 (single isomer, unassigned) [Compound 266]", "EXPERIMENTAL_TARGET": "CDK4-NanoLuc fusion with CCND1 in 293T or 293 cells (Homo sapiens)", "INEQUALITY_SYMBOL": "=", "READING": 1980}
{"COMPOUND": "COc1cc(O)c(C=O)c(OCC(=O)Nc2cc([C@H]3CC[C@@H](OC(=O)N4CC(N(C)C)C4)C3)[nH]n2)c1", "EXPERIMENTAL_TARGET": "CDK4-NanoLuc fusion with CCND1 in 293T or 293 cells (Homo sapiens)", "INEQUALITY_SYMBOL": ">", "READING": 10000}
